Measured apparent KD of MS2 coat protein values are reported for all entries that follow.
# Test system: MS2 coat protein
# Protocol: apparent KD of MS2 coat protein; designed switch direction (-1 OFF switch, 1 ON switch): 1; higher = weaker reporter binding
# Experimental context: Eterna round: R95; input ligand: none
Quick reminder: number only, in nM, skip the unit.

Below, each entry is followed by its recorded apparent KD of MS2 coat protein result.
- GAGGAACAUGAGGAUCACCCAUGUGGGAUGGGACAAGGAUAUGUAGGUAGAGGAGAAGAGACAGAAGGUGUAGGAG [JR_SS1_Sub052] (puzzle: Same State 1): 660
- UCAAGCGAGAGGCUCGUCUUAUGUAAGGUACAUGAGGAUCACCCAUGUGAGGGACGAUUGAGUUAGAUGGAAUGGAG [JR_SHM208A_Sub033] (puzzle: Sensor for hsa-mir-208a): 50.9
- GGUCCAGCCUGAGCUGGACUACAGCAUGUACAUGAGGAUCACCCAUGUCAUGUACAUGUUUUUUGUUUGUCUUAAAA [Sensorship 9 - Jieux - Sensor for hsa-mir-208a] (puzzle: Sensor for hsa-mir-208a): 99.4
- AAGAAAGUUUACGAGGAUAUGUUCCGCAUAACAUGAGGAUCACCCAUGUGAACAAGAAAGGCGACGCAGAAGGCGUGAGCAAAAG [Mat - Same State 2 - Mod of UCT - D97] (puzzle: Same State 2): 412

Consider the additional sequence presented here.
Q) GET /values?readout=apparent KD of MS2 coat protein&item= AUCCUACAUGAGGAUCACCCAUGUGACGCCUCGAUAGGAUAUGCGUGUGCCUUGGCGCAUGCAGAAGGAUUGUUGC [JL Aveso mod 7] (puzzle: Same State 1)
A) 27.1
